# ASSAY_PROCEDURE: qHTS assay to identify small molecule agonists of the endoplasmic reticulum stress response signaling pathway (AID 1159516)
# MEASUREMENT_PARAMETERS: ESRE-bla HeLa, ER stress beta-lactamase reporter, 5 h; series mostly up to 61 µM
Records with an inconclusive call do not appear. Activity calls are given as the source filed them. Calls come from the whole dose curve; as a rule, active = well fitted activation curve with a large enough effect in the signal ratio in the repeat runs (not every such curve was filed as active); inconclusive = weak or mixed curves, or effect the other way; inactive = flat fitted curve, though single readings scatter; the % refers to the signal ratio.
QUANTITY: outcome

Some compounds with recorded outcome:
| COMPOUND | QUANTITY | VALUE_OBSERVED |
| --- | --- | --- |
| Cc1ccc(/C(=C\CN2CCCC2)c2ccccn2)cc1 | outcome | inactive |
| C=CCOC(=O)C(=C)C | outcome | inactive |
| CCCN1C=CN(C)C1 | outcome | inactive |
| CCCCCCCCCCCCO | outcome | inactive |
| O=[Se](O)O | outcome | inactive |
| [Na+] | outcome | inactive |
| Nc1cc([N+](=O)[O-])ccc1C(=O)O | outcome | inactive |
| CC1=CC(C)(C)Nc2ccccc21 | outcome | inactive |

Please state, for each entry, its recorded outcome.
1. C=CC(C)(O)CCC=C(C)C (stereo not given)
2. C=CCCCCCCCCCC

Reply:
1. inactive
2. inactive
